# measured-target: M2R (Homo sapiens)
# assay-summary: biochemical
# Assay type: binding
# Design: expressed in transfected cells
# condition-notes: IC50 ([3H]-NMS competition), M2R in HDL particles, absence of GoA
endpoint-label: pIC50
One number for each entry, as −log10 of the molar value.

# get_value(readout='pIC50', item= `C[N+](C)(C)CC#CCOC1=NOCC1` )
7.32

---

# measured-target: UniProtKB P08172
# Sequence (P08172 1-466): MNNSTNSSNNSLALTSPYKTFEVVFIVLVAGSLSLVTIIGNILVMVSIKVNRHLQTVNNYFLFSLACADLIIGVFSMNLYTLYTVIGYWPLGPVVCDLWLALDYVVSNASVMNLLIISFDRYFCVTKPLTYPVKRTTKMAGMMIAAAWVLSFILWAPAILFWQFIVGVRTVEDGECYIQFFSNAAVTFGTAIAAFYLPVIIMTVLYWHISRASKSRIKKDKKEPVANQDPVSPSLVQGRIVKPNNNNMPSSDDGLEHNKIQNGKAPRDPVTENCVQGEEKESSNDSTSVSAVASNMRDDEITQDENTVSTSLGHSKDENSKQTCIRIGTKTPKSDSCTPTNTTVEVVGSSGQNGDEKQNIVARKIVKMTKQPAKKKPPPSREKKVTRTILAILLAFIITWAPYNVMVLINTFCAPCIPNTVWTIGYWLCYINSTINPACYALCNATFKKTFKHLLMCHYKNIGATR
# assay-summary: biochemical
# Assay type: binding
# Design: expressed in transfected cells
# condition-notes: IC50 ([3H]-NMS competition), M2R in HDL particles, +GoA
endpoint-label: pIC50
Answers are plain numbers, as −log10 of the molar value.

# get_value(readout='pIC50', item= C[N+](C)(C)CC#CCOC1=NOCC1 [Ixo, iperoxo] )
8.74

Reference source: paper PMC9870890
